- Tested on: pERK in NCI-H358 cells
- TEST SUMMARY: Cell-based pERK HTRF assay
- REPORTED CONDITIONS: Homo sapiens, 0.5 h, 30 min incubation
VALUE TYPE: IC50

# MOLECULE, VALUE TYPE, OBS VALUE
records = [
    ("C=CC(=O)N1C[C@H](C)N(c2nc(OC[C@@]34CCCN3C[C@H](F)C4)nc3c(F)c(-c4ccc(F)c5sc(N)c(C#N)c45)ncc23)C[C@H]1C [Compound 7]", "IC50", "≤ 100 nM"),
    ("C=CC(=O)N1CCC(N(C)c2nc(OC)nc3c(F)c(-c4ccc(F)c5sc(N)c(C#N)c45)ncc23)[C@H]1C (stereo partly drawn) [Compound 32]", "IC50", "> 1000 nM"),
    ("C=CC(=O)N1CC[C@@H](N(C)c2nc(OC[C@@]34CCCN3C[C@H](F)C4)nc3c(Cl)c(-c4ccc(F)c5sc(N)c(C#N)c45)ncc23)[C@@H]1CC [Compound 45]", "IC50", "100 to 1000 nM"),
]
